- targetOfAssay: GFP-tagged Plasmepsin V (PmV-GFP), P. falciparum clone DC6 (Plasmodium falciparum)
- Sequence (Q8I6Z5 whole entry): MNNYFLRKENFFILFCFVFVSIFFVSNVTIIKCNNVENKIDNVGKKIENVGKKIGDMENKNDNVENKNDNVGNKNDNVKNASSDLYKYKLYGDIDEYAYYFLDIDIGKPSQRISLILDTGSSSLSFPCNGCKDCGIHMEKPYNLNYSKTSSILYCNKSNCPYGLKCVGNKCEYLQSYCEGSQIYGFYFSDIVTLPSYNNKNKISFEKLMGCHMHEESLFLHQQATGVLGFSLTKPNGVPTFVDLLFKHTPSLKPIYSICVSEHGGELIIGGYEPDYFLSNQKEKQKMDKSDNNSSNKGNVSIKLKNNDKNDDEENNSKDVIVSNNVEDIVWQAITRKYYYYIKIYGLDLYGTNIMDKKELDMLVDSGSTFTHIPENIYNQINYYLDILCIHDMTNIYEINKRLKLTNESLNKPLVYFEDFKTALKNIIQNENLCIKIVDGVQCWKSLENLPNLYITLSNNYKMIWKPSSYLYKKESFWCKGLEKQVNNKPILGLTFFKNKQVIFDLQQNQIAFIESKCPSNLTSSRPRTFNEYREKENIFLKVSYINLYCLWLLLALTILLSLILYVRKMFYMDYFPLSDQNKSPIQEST
Ends that are not written are not given here.
readoutName: pKi
Scale: pKi equals -log10([C]), with [C] in mol/L.

-- ask Fill in reported pKi for this entry: RLLYEA (not fully specified; also: HEA isostere replaces the Leu3-Tyr4 peptide bond) [Compound 7a]
-- reply 9.13

Provenance of the data: paper PMC4643876
